# system: T1, Anti-PSMA Fab
# T1 construct: Biotinylated and captured on neutravidin coated plates in the panning ELISA; also called 006 PSMA Fab
# methodNotes: phage ELISA; biotinylated PSMA Fab on neutravidin plate, clonal phage supernatant, anti-M13-HRP detection;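 further: wells were preincubated with blocking buffer containing PSMA antigen or with blocking buffer only, then phage supernatant was added without washing for a brief incubation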
attributeMeasured: Phage binding ELISA signal, Anti-PSMA Fab
Provide a numeric answer; units are not to be included.

Use these answered entries as a reference point.
> print(dat)
                                     binder  observed
1  GEPVCKPAWMCEGF (also called peptide-180 library clone) [Phage-2909]      2.33
2  AVHYCQPSWMCTGF (also called peptide-180 library clone) [Phage-2912]      2.33

Moving on to another binder below.
Req: State its Phage binding ELISA signal, Anti-PSMA Fab: GGLLCKPAWMCNWL (also called peptide-180 library clone) [Phage-2915]
Resp: 2.32
